System: Human immunodeficiency virus 1
Test: Selectivity ratio of IC50 for wild type HIV1 3B infected in human MT4 cells in presence of human serum albumin to IC50 for wild type HIV1 3B infected in human MT4 cells
Type: functional
Label 1 when Ratio IC50 >= 10; otherwise -1.

Task: State whether the measured Ratio IC50 reaches 10, counting equality as reaching it, for COCCN1CCCN2C(=O)c3c(O)c(=O)c(C(=O)NCc4ccc(F)cc4)cn3CC12 (racemic)
Output: -1

Task: Is reported Ratio IC50 greater than or equal to 10 here: O=C(NCc1ccc(F)cc1)c1cn2ccn(C3CCCCC3)c(=O)c2c(O)c1=O
Output: 1

Task: Threshold query (Ratio IC50 >= 10) on COCCn1ccn2cc(C(=O)NCc3ccc(F)cc3)c(=O)c(O)c2c1=O
Output: 1

Task: I'd appreciate it if you could say whether COCCN1C(=O)c2c(O)c(=O)c(C(=O)NCc3ccc(F)cc3)cn2CC1O (stereo not drawn) has Ratio IC50 at least equal to 10.
Output: -1

Task: Form field: Ratio IC50 at least 10? Entry: CN1CCCCN2C(=O)c3c(O)c(=O)c(C(=O)NCc4ccc(F)cc4)cn3CC12 (racemic)
Output: -1

Task: Given O=C(NCc1ccc(F)cc1)c1cn2ccn(CCN3CCOCC3)c(=O)c2c(O)c1=O , state whether its Ratio IC50 is at least 10.
Output: -1

Task: Is the recorded value of Ratio IC50 equal to or greater than 10 for this compound? O=C(NCc1ccc(F)cc1)c1cn2c(c(O)c1=O)C(=O)N(C1CCCCC1)CC2
Output: -1

Task: I'd appreciate it if you could say whether O=C(NCc1ccc(F)cc1)c1cn2c(c(O)c1=O)C(=O)N(CCOc1ccccc1)CC2 has Ratio IC50 at least equal to 10.
Output: -1

* * *

Assay: Volume of distribution at steady state in rat at 1 mg/kg, iv and 5 mg/kg, po
Assay type: ADME, organism-based
Settings: in vivo, read-out: Vdss
RECORDED METRIC: Vd (L/kg)
Output spec: scalar in L/kg, unitless text.

Consider COC(=O)c1[nH]cc(C(=O)NCc2ccc(F)cc2)c(=O)c1O . Its measured Vd is 0.2

Lab note: measured Vd of O=C(NCc1ccc(F)cc1)c1cn2c(c(O)c1=O)C(=O)N1CCCOC1C2 (racemic) was 0.13

COCCN1C(=O)c2c(O)c(=O)c(C(=O)NCc3ccc(F)cc3)cn2CC1O (centres undefined) has a reported Vd of 0.14

Note to self: Vd recorded for COCCN1CCn2cc(C(=O)NCc3ccc(F)cc3)c(=O)c(O)c2C1=O was 0.12

* * *

Experiment: Half life in rat at 1 mg/kg, iv and 5 mg/kg, po
Type: ADME, organism-based
Settings: in vivo
Would you mind telling me the reported half-life of each entry?
Give a bare numeral; the unit h is implied.

Please fill in: half-life reported for COCCN1C(=O)c2c(O)c(=O)c(C(=O)NCc3ccc(F)cc3)cn2CC1O (stereo not given) = 7.6

Sure, the documented half-life for COCCN1CCn2cc(C(=O)NCc3ccc(F)cc3)c(=O)c(O)c2C1=O is 3.4

// recorded half-life for COCCn1ccn2cc(C(=O)NCc3ccc(F)cc3)c(=O)c(O)c2c1=O : 11

The recorded half-life for entry COC(=O)c1[nH]cc(C(=O)NCc2ccc(F)cc2)c(=O)c1O equals 4.7

Per the record, O=C(NCc1ccc(F)cc1)c1cn2c(c(O)c1=O)C(=O)N1CCCOC1C2 (racemic) has half-life of 17

* * *

Give measured pIC50 for each item. Keep answers brief.
Test system: Human immunodeficiency virus 1
Assay: Antiviral activity against wild type HIV1 3B infected in human MT4 cells assessed as cell viability by MTT assay in presence of human serum albumin
Format: functional, organism-based
Conditions: Human immunodeficiency virus 1, 3B
In simple prose, pIC50 is minus the logarithm base ten of a concentration in moles per litre.

Recorded result, CC(C)N1CCN2C(=O)c3c(O)c(=O)c(C(=O)NCc4ccc(F)cc4)cn3CC21 (racemic) , pIC50: 8.11

Quick note, pIC50 for CN(C)C(=O)Cn1ccn2cc(C(=O)NCc3ccc(F)cc3)c(=O)c(O)c2c1=O landed at 6.84

Looking up COCCN1C(=O)c2c(O)c(=O)c(C(=O)NCc3ccc(F)cc3)cn2CC1O (centres undefined) , I found its pIC50 recorded as 7.85

Looking up CC(C)CN1CCCCN2C(=O)c3c(O)c(=O)c(C(=O)NCc4ccc(F)cc4)cn3CC12 (racemic) , I see its pIC50 listed as 7.04

// pIC50 value for CC(C)OCCN1CCn2cc(C(=O)NCc3ccc(F)cc3)c(=O)c(O)c2C1=O : 7.89

For record O=C(NCc1ccc(F)cc1)c1cn2ccn(CCOc3ccccc3)c(=O)c2c(O)c1=O the listed pIC50 is 7.32

For CN1CCCN2C(=O)c3c(O)c(=O)c(C(=O)NCc4ccc(F)cc4)cn3CC12 (racemic) the compound record lists pIC50 as 7.79

The reported pIC50 of the compound CC(C)OCCn1ccn2cc(C(=O)NCc3ccc(F)cc3)c(=O)c(O)c2c1=O was 7.72

Noted for O=C(NCc1ccc(F)cc1)c1cn2c(c(O)c1=O)C(=O)N(CCOc1ccccc1)CC2 : its pIC50 reads 7.19

Record summary for COCCn1ccn2cc(C(=O)NCc3ccc(F)cc3)c(=O)c(O)c2c1=O : reported pIC50 = 7.57

The compound identified as O=C(NCc1ccc(F)cc1)c1cn2ccn(C3CCCCC3)c(=O)c2c(O)c1=O registered its pIC50 at 6.81

For reference, reported pIC50 for O=C(NCc1ccc(F)cc1)c1cn2ccn(CCN3CCOCC3)c(=O)c2c(O)c1=O stands at 7.70

pIC50 in this record for CN1CCCCN2C(=O)c3c(O)c(=O)c(C(=O)NCc4ccc(F)cc4)cn3CC12 (racemic) : 7.50

Input O=C(NCc1ccc(F)cc1)c1cn2c(c(O)c1=O)C(=O)N1CCCCOC1C2 (racemic) . Output pIC50: 7.66

CN(C)C(=O)CN1CCn2cc(C(=O)NCc3ccc(F)cc3)c(=O)c(O)c2C1=O has a reported pIC50 of 7.21

Reported pIC50 ( O=C(NCc1ccc(F)cc1)c1cn2c(c(O)c1=O)C(=O)N(C1CCCCC1)CC2 ) = 7.54

Lab note: O=C(NCc1ccc(F)cc1)c1cn2c(c(O)c1=O)C(=O)N1CCCN(Cc3nccs3)C1C2 (racemic) gave pIC50 of 7.89

The recorded pIC50 for entry CC(=O)N1CCCN2C(=O)c3c(O)c(=O)c(C(=O)NCc4ccc(F)cc4)cn3CC12 (racemic) equals 7.24

Reported pIC50 ( COCCN1CCn2cc(C(=O)NCc3ccc(F)cc3)c(=O)c(O)c2C1=O ) = 7.74

* * *

Assay: Oral bioavailability in rat at 5 mg/kg
Format: ADME, organism-based
Settings: in vivo
Give bioavailability for every item shown.
Give just the numeric value; % need not be written.

// bioavailability value for COCCN1C(=O)c2c(O)c(=O)c(C(=O)NCc3ccc(F)cc3)cn2CC1O (stereo not drawn) : 14

Entry COCCN1CCn2cc(C(=O)NCc3ccc(F)cc3)c(=O)c(O)c2C1=O ; bioavailability = 41

Form field bioavailability, entry COCCn1ccn2cc(C(=O)NCc3ccc(F)cc3)c(=O)c(O)c2c1=O : 40

* * *

Task for the reader: assign each of the following compounds its reported Ratio IC50.
Tested on: Human immunodeficiency virus 1
Assay: Selectivity ratio of IC50 for RAL-resistant HIV1 harboring integrase N155H mutant to IC50 for wild type HIV1 3B
Assay type: functional
Lab note: jot the number down without any unit.

Looking up COC(=O)c1[nH]cc(C(=O)NCc2ccc(F)cc2)c(=O)c1O , I see its Ratio IC50 listed as 21

COc1cc2c(cc1Cc1cccc(Cl)c1F)c(=O)c(C(=O)O)cn2[C@H](CO)C(C)C has a reported Ratio IC50 of 25

So for COCCN1C(=O)c2c(O)c(=O)c(C(=O)NCc3ccc(F)cc3)cn2CC1O (stereo unspecified) , the logged Ratio IC50 turned out to be 1.5

Reported Ratio IC50 of O=C(NCc1ccc(F)cc1)c1cn2c(c(O)c1=O)C(=O)N1CCCOC1C2 (racemic) : 1.6

Note to self: Ratio IC50 recorded for COCCN1CCn2cc(C(=O)NCc3ccc(F)cc3)c(=O)c(O)c2C1=O was 1.5

For record COCCn1ccn2cc(C(=O)NCc3ccc(F)cc3)c(=O)c(O)c2c1=O the listed Ratio IC50 is 3.7

* * *

Assay: Ratio of plasma concentration in rat after 24 hrs to IC50 for wild type HIV1 3B infected in human MT4 cells in presence of human serum albumin
Assay type: ADME, cell-based
Conditions: mt4, 24 h
Classify as follows. Reported Ratio greater than or equal to 30: Satisfied. Reported Ratio below: Not satisfied.

Task: Given COC(=O)c1[nH]cc(C(=O)NCc2ccc(F)cc2)c(=O)c1O , state whether its Ratio is at least 30.
Output: Not satisfied

Task: Check the entry O=C(NCc1ccc(F)cc1)c1cn2c(c(O)c1=O)C(=O)N1CCCOC1C2 (racemic) : does Ratio equal or exceed 30?
Output: Satisfied

Task: Determine whether measured Ratio meets or exceeds 30 for COCCN1CCn2cc(C(=O)NCc3ccc(F)cc3)c(=O)c(O)c2C1=O
Output: Not satisfied

Task: Please check the record COCCn1ccn2cc(C(=O)NCc3ccc(F)cc3)c(=O)c(O)c2c1=O and state if its Ratio is at or above 30.
Output: Satisfied

Task: Please tell me: is the compound COCCN1C(=O)c2c(O)c(=O)c(C(=O)NCc3ccc(F)cc3)cn2CC1O (stereo not given) at or over 30 in terms of Ratio?
Output: Satisfied
